substrate: CCOC(=O)C(=O)CCc1ccccc1; assay: purified protein; type: biochemical, Thermotoga maritima; settings: apparent, 0.25 mM NADPH, 50 mM potassium phosphate pH 6.5, 35 °C, 30 mM DMSO
Experimental Endpoint: kcat/Km

>>> readout_value("Tm1743 (Thermotoga maritima MSB8) (protein) MLYKELGRTGEEIPALGLGTWGIGGFETPDYSRDEEMVELLKTAIKMGYTHIDTAEYYGGGHTEELIGKAIKDFRREDLFIVSKVWPTHLRRDDLLRSLENTLKRLDTDYVDLYLIHWPNPEIPLEETLSAMAEGVRQGLIRYIGVSNFDRRLLEEAISKSQEPIVCDQVKYNIEDRDPERDGLLEFCQKNGVTLVAYSPLRRTLLSEKTKRTLEEIAKNHGATIYQIMLAWLLAKPNVVAIPKAGRVEHLRENLKATEIKLSEEEMKLLDSLG")
"1780 M⁻¹ s⁻¹"
